target: Human COX-1 (Homo sapiens, UniProt P23219); construct: A 2.0 kb fragment containing the coding region of either human or murine COX-1 or human or murine COX-2; CHAPS-solubilized membranes; test: Evaluation of COX-1 activity in vitro (recombinant enzyme, PGE2 ELISA); conditions: 10 μM arachidonic acid; 10-20 minutes pre-incubation; pH 8.0
Sequence (P23219 24-599): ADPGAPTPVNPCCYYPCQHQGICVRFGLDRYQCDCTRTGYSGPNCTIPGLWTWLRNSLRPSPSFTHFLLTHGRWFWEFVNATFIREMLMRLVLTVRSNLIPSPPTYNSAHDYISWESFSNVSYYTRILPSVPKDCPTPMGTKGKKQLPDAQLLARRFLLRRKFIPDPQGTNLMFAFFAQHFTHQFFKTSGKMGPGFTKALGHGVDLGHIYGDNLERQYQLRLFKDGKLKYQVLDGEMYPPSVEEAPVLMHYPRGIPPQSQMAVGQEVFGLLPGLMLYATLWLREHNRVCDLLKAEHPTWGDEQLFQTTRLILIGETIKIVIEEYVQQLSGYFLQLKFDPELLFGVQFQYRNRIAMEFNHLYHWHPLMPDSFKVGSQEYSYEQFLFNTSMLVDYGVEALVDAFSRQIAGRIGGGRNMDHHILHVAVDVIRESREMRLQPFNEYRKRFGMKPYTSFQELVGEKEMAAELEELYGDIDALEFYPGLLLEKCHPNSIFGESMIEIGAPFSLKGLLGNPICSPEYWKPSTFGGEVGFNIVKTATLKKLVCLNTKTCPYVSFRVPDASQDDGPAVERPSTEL
pIC50: −log10 of the molar value.
experimental-readout: pIC50

record-smiles	pIC50
Cc1ccc2c(c1)COc1c(C(F)F)nn(-c3ccc(S(N)(=O)=O)cc3)c1-2	4.97
NS(=O)(=O)c1ccc(-n2nc(C(F)F)c3c2-c2ccc(Cl)cc2CS3)cc1	5.82
COc1ccc2c(c1)COc1c(C(F)(F)F)nn(-c3ccc(S(N)(=O)=O)cc3)c1-2	6.70
NS(=O)(=O)c1ccc(-n2nc(C(F)(F)F)c3c2-c2ccccc2SC3)cc1	5.01

A. NS(=O)(=O)c1ccc(-n2nc(CO)c3c2-c2ccc(F)cc2CS3)cc1
B. NS(=O)(=O)c1ccc(-n2nc(C(F)(F)F)c3c2-c2ccccc2CS3)cc1
Request: Param pair: A , B . Output: the one whose pIC50 is numerically greater. Returns: label corresponding to the selected item.
Response: B
(B: 6.40, A: 5.17)

---

molecular target: Human COX-1 (Homo sapiens); construct: A 2.0 kb fragment containing the coding region of either human or murine COX-1 or human or murine COX-2; CHAPS-solubilized membranes; assay: Evaluation of COX-1 activity in vitro (recombinant enzyme, PGE2 ELISA); conditions: 10 μM arachidonic acid; 10-20 minutes pre-incubation; pH 8.0
experimental-readout: IC50 (µM)

record-smiles	target	IC50, µM
Cc1ccc2c(c1)CSc1c(C(F)F)nn(-c3ccc(S(N)(=O)=O)cc3)c1-2	Human COX-1 (Homo sapiens)	1.2

P. CS(=O)(=O)c1ccc(-n2nc(C(F)(F)F)c3c2-c2ccc(F)cc2CS3)cc1
Q. NS(=O)(=O)c1ccc(-n2nc(C(F)F)c3c2-c2ccc(F)cc2CS3)cc1
Request: Between P and Q , which one shows the smaller IC50 number? Returns: label corresponding to the selected item.
Response: Q
(Q: 0.2 µM, P: 8.9 µM)
